Please provide measured growth for the entries that follow.
# System: OVCAR-8 ovarian
# Assay Comment: NCI-60 one-dose screen, 48 h (100 = growth as untreated, 0 = no growth, -100 = all killed)
# Assay Context: 10 µM unless noted
# Procedure: Growth inhibition of the OVCAR-8 human tumor cell line is measured as a screen for anti-cancer activity. Cells are grown in 96 well plates and exposed to the test compound for 48 hours. Compounds are tested at a single concentration, which is 10^-5 M for most compounds. The reported endpoint is percent growth (GI% or GIPRCNT), where numbers from 0 - 100% represent growth inhibition, and numbers from -100% - 0 represent cell death. For example, a value of 40 represents 60% growth inhibition. […]
The panel holds about 83,000 compounds, 20% with a hit somewhere; the sample as a whole holds those more often.
Answers are plain numbers, in %.

Some solved cases for reference:
>>> assay_value("O=C1Nc2ccccc2/C1=C/C(=O)c1cc2ccccc2oc1=O")
109
>>> assay_value("COc1ccc2oc(=O)c(-c3csc(N/N=C(\\C)c4cc(OC)c(OC)c(OC)c4)n3)cc2c1")
86.2

Give measured growth for every item shown.
1. COc1ccccc1/C=C/c1cccc(NC(=S)NCCCCN(C)C)c1
2. COc1cc(C2CC(c3ccc(S(=O)(=O)NCCNc4nc(N(C)C)nc(N5CCOCC5)n4)cc3)=Nc3c(N)nc(N)nc3N2)cc(OC)c1OC (centres undefined)
3. CN(C)c1nc(NCCNS(=O)(=O)c2ccc(C(=O)/C=C/c3ccc(Cl)cc3)cc2)nc(N2CCOCC2)n1
4. CCOC(=O)/C(F)=C/C1CC1C(c1ccccc1)c1ccccc1 (centres undefined)
5. CN1CCc2c(sc3ncnc(N/N=C/c4cccc(Cl)c4Cl)c23)C1
6. O=C(c1ccc(O)cc1)C1[C@H](c2ccc(Cl)cc2)[C@@H](c2ccccc2)NC12C(=O)Nc1ccc(Br)cc12 (some centres undefined)

Given back:
[-58.5, 103, 12.8, 105, -38.6, 5.82]

Report growth for every entry below.
1. CN(C)c1nc(NCCNS(=O)(=O)c2ccc(C(=O)/C=C/c3ccc(C(F)(F)F)cc3)cc2)nc(N2CCOCC2)n1
2. Clc1ccc2c(NCCNC34CC5CC(CC(C5)C3)C4)ccnc2c1
3. O=C(N/N=C/c1c[nH]c2ccccc12)Nc1ccc(F)c(Cl)c1

Given back:
1: 1.73; 2: -63.4; 3: 50.2

Give growth for each listed item.
1. CC1=C(C(=O)Nc2ccccc2)C(c2ccc3ccccc3c2)n2c(nc3ccccc32)N1 (centres undefined)
2. CCOc1ccc(-c2cc(-c3cc(C(C)C)c(O)cc3C)nn2-c2ccc(S(N)(=O)=O)cc2)cc1
3. O=C(Cn1c(/C=C/c2ccc([N+](=O)[O-])cc2)nc2ccccc2c1=O)Nc1ccccc1

Given back:
6.23
36.4
65.8
